tested on: SK-OV-3 ovarian; experiment: NCI tumour cell line growth inhibition, 48 h
quantity: TGI

# return TGI for each item in the list
1. Cn1c(=O)c2c(ncn2CCSS(=O)(=O)O)n(C)c1=O
2. Cc1cc(N(CCC#N)CCC#N)ccc1/C(N=Nc1ccccc1)=N\NC(=O)c1ccccc1
3. O=C(N/N=C/C=C/c1ccc([N+](=O)[O-])o1)c1ccc(Br)s1

Result ::
["> 100 µM", "> 100 µM", "> 100 µM"]

Could I get TGI for every one of these entries?
1. NC(N)=NS(=O)(=O)c1ccc(Nc2c3ccccc3nc3c(C(=O)NC(CO)(CO)CO)cccc23)cc1
2. CNc1cccnc1/C=N/NC(N)=S

Result ::
1. > 100 µM
2. > 10 µM
